Test system: S. cerevisiae
method_summary: DEL
condition_context: IC80 concentration, 17 h, DEL(URA3) strain, average of three samples
assay_readout: Induction of deletion, fold increase over untreated control, Obsd (fold)
Give a bare numeral; the unit fold is implied.

IN: Report Induction of deletion, fold increase over untreated control, Obsd for N#Cc1ccc(O)cc1
OUT: 1.25

IN: Report Induction of deletion, fold increase over untreated control, Obsd for COc1ccc(O)cc1C(C)(C)C
OUT: 1.17

IN: Report Induction of deletion, fold increase over untreated control, Obsd for Oc1ccc(O)cc1 [4-OH, hydroquinone]
OUT: 2.25

IN: Report Induction of deletion, fold increase over untreated control, Obsd for Oc1ccc(F)cc1
OUT: 2.03

IN: Report Induction of deletion, fold increase over untreated control, Obsd for CCCCCCCCCc1ccc(O)cc1
OUT: 2.58

IN: Report Induction of deletion, fold increase over untreated control, Obsd for Oc1ccccc1
OUT: 2.27

IN: Report Induction of deletion, fold increase over untreated control, Obsd for COc1ccc(O)c(C(C)(C)C)c1
OUT: 2.57

IN: Report Induction of deletion, fold increase over untreated control, Obsd for COc1ccc(O)cc1
OUT: 2.01

IN: Report Induction of deletion, fold increase over untreated control, Obsd for Oc1ccc(Cl)cc1
OUT: 1.85

IN: Report Induction of deletion, fold increase over untreated control, Obsd for Oc1ccccc1O
OUT: 2.26
